Data origin: patent US20230293517A1

# ASSAYED_TARGET: human Adenosine A3 receptor (Homo sapiens (Human), UniProt P0DMS8)
# Sequence (P0DMS8 whole entry): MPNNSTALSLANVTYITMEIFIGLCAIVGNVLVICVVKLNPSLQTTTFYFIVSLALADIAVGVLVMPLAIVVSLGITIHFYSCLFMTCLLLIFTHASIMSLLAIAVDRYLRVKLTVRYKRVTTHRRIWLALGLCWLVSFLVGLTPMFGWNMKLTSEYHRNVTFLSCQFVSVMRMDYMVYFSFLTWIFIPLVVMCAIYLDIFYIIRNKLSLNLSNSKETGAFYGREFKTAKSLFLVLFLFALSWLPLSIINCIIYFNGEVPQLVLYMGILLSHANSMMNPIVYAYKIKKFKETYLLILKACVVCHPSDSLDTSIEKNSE
Values of Ki strictly less than 400 nM map to TRUE, and values of at least 400 nM map to FALSE.

- COMPOUND: "CCc1cc(-c2sc(NC(=O)N3CC4(COC4)C3)nc2-c2cccc(C#N)c2)cc(C)n1 [Example 16.9]"
  ASSAYED_TARGET: "human Adenosine A3 receptor (Homo sapiens (Human), UniProt P0DMS8)"
  GROUP_LABEL: "TRUE"
- COMPOUND: "Cc1cc(-c2sc(NC(=O)N3CCS(=O)(=O)CC3)nc2-c2cccc(C#N)c2)cc(C)n1 [Example 4.27]"
  ASSAYED_TARGET: "human Adenosine A3 receptor (Homo sapiens (Human), UniProt P0DMS8)"
  GROUP_LABEL: "FALSE"
- COMPOUND: "Cc1cc(-c2sc(NC(=O)N3CCC(C)(C#N)C3)nc2-c2cccc(C#N)c2)cc(C)n1 (racemic) [Example 27]"
  ASSAYED_TARGET: "human Adenosine A3 receptor (Homo sapiens (Human), UniProt P0DMS8)"
  GROUP_LABEL: "TRUE"
- COMPOUND: "Cc1cc(-c2sc(NC(=O)N3CCN4C(=O)NCCC4C3)nc2-c2cccc(C#N)c2)cc(C)n1 (stereo not drawn) [Example 6.42]"
  ASSAYED_TARGET: "human Adenosine A3 receptor (Homo sapiens (Human), UniProt P0DMS8)"
  GROUP_LABEL: "FALSE"
- COMPOUND: "Cc1cc(-c2sc(NC(=O)N3CCC(n4cccn4)CC3)nc2-c2cccc(C#N)c2)cc(C)n1 [Example 6.21]"
  ASSAYED_TARGET: "human Adenosine A3 receptor (Homo sapiens (Human), UniProt P0DMS8)"
  GROUP_LABEL: "TRUE"
- COMPOUND: "Cc1cc(-c2sc(NC(=O)N3CCOCC3C(C)(C)O)nc2-c2cccc(C#N)c2)cc(Cl)n1 (stereo not drawn) [Example 3.4]"
  ASSAYED_TARGET: "human Adenosine A3 receptor (Homo sapiens (Human), UniProt P0DMS8)"
  GROUP_LABEL: "FALSE"
- COMPOUND: "Cc1cc(-c2sc(NC(=O)N3C[C@H]4OCCN(C)[C@H]4C3)nc2-c2cccc(C#N)c2)cc(C(F)F)n1 (racemic) [Example 6.106]"
  ASSAYED_TARGET: "human Adenosine A3 receptor (Homo sapiens (Human), UniProt P0DMS8)"
  GROUP_LABEL: "TRUE"
- COMPOUND: "Cc1cc(-c2sc(NC(=O)N3CCC4(CNCCO4)C3)nc2-c2cccc(C#N)c2)cc(C)n1 (stereo not drawn) [Example 13.12]"
  ASSAYED_TARGET: "human Adenosine A3 receptor (Homo sapiens (Human), UniProt P0DMS8)"
  GROUP_LABEL: "FALSE"
- COMPOUND: "Cc1cc(-c2sc(NC(=O)N3CC[C@](C)(C#N)C3)nc2-c2cccc(C#N)c2)cc(C)n1 [Example 27b]"
  ASSAYED_TARGET: "human Adenosine A3 receptor (Homo sapiens (Human), UniProt P0DMS8)"
  GROUP_LABEL: "TRUE"
- COMPOUND: "Cc1cc(-c2sc(NC(=O)N3CCC4(CNCCO4)C3)nc2-c2cccc(C#N)c2)cc(C(F)F)n1 (stereo not drawn) [Example 6.108]"
  ASSAYED_TARGET: "human Adenosine A3 receptor (Homo sapiens (Human), UniProt P0DMS8)"
  GROUP_LABEL: "TRUE"
- COMPOUND: "Cc1cc(-c2sc(NC(=O)N3CC(O)C3)nc2-c2cccc(C#N)c2)cc(C)n1 [Example 4.30]"
  ASSAYED_TARGET: "human Adenosine A3 receptor (Homo sapiens (Human), UniProt P0DMS8)"
  GROUP_LABEL: "TRUE"
- COMPOUND: "Cc1cc(-c2sc(NC(=O)N3CCC4(CCNC4=O)CC3)nc2-c2cccc(C#N)c2)cc(C)n1 [Example 6.24]"
  ASSAYED_TARGET: "human Adenosine A3 receptor (Homo sapiens (Human), UniProt P0DMS8)"
  GROUP_LABEL: "TRUE"
- COMPOUND: "Cc1cc(-c2sc(NC(=O)N3CCN4CCNC(=O)C4C3)nc2-c2cccc(C#N)c2)cc(C)n1 (stereo not drawn) [Example 6.16]"
  ASSAYED_TARGET: "human Adenosine A3 receptor (Homo sapiens (Human), UniProt P0DMS8)"
  GROUP_LABEL: "FALSE"
- COMPOUND: "Cc1cc(-c2sc(NC(=O)N3CCN(C)CC3)nc2-c2cccc(C#N)c2)cc(C)n1 [Example 4]"
  ASSAYED_TARGET: "human Adenosine A3 receptor (Homo sapiens (Human), UniProt P0DMS8)"
  GROUP_LABEL: "FALSE"
- COMPOUND: "Cc1cc(-c2sc(NC(=O)N3CCS(=O)(=NC#N)CC3)nc2-c2cccc(C#N)c2)cc(C)n1 [Example 11]"
  ASSAYED_TARGET: "human Adenosine A3 receptor (Homo sapiens (Human), UniProt P0DMS8)"
  GROUP_LABEL: "FALSE"
- COMPOUND: "Cc1cc(-c2sc(NC(=O)N3CCN[C@@H](C(C)(C)O)C3)nc2-c2cccc(C#N)c2)cc(Cl)n1 [Example 3.10]"
  ASSAYED_TARGET: "human Adenosine A3 receptor (Homo sapiens (Human), UniProt P0DMS8)"
  GROUP_LABEL: "TRUE"
- COMPOUND: "Cc1cc(-c2sc(NC(=O)N3CCC4(CCOC4)C3)nc2-c2cccc(C#N)c2)cc(C)n1 (stereo not drawn) [Example 6.80]"
  ASSAYED_TARGET: "human Adenosine A3 receptor (Homo sapiens (Human), UniProt P0DMS8)"
  GROUP_LABEL: "FALSE"
- COMPOUND: "Cc1cc(-c2sc(NC(=O)N3CCN4C(=O)CNC(=O)C4C3)nc2-c2cccc(C#N)c2)cc(C)n1 (stereo not drawn) [Example 6.35]"
  ASSAYED_TARGET: "human Adenosine A3 receptor (Homo sapiens (Human), UniProt P0DMS8)"
  GROUP_LABEL: "TRUE"
- COMPOUND: "Cc1cc(-c2sc(NC(=O)N3CCC(C(=O)O)CC3)nc2-c2cccc(C#N)c2)cc(C)n1 [Example 6.62]"
  ASSAYED_TARGET: "human Adenosine A3 receptor (Homo sapiens (Human), UniProt P0DMS8)"
  GROUP_LABEL: "TRUE"
- COMPOUND: "COCC1(C#N)CCN(C(=O)Nc2nc(-c3cccc(C#N)c3)c(-c3cc(C)nc(C)c3)s2)CC1 [Example 4.6]"
  ASSAYED_TARGET: "human Adenosine A3 receptor (Homo sapiens (Human), UniProt P0DMS8)"
  GROUP_LABEL: "TRUE"
